- method_summary: Pharmacokinetic study, bioavailability of folic acid encapsulated in zein nanoparticles
- Type: in vivo, male Wistar rats
- measurement_parameters: male, Wistar; rat serum, intravenous route, 1 mg/kg folic acid in PBS; mean ± SD, n = 5
measured_parameter: Cmax

> print(dat)
                                test.smiles  measured.parameter      result
1  Nc1nc2ncc(CNc3ccc(C(=O)N[C@@H](CCC(=O)O)C(=O)O)cc3)nc2c(=O)[nH]1                Cmax  4230 ng/mL

* * *

- method_summary: Pharmacokinetic study, bioavailability of folic acid encapsulated in zein nanoparticles
- Type: in vivo, male Wistar rats
- measurement_parameters: male, Wistar; rat serum, oral route, 1 mg/kg folic acid; mean ± SD, n = 5; read-out: AUC (×10^4) (converted)
measured_parameter: AUC (ng·h/mL)

> print(dat)
                                test.smiles  measured.parameter  unit.name  measured.number
1  Nc1nc2ncc(CNc3ccc(C(=O)N[C@@H](CCC(=O)O)C(=O)O)cc3)nc2c(=O)[nH]1                 AUC    ng·h/mL             1300

* * *

- method_summary: Pharmacokinetic study, bioavailability of folic acid encapsulated in zein nanoparticles
- Type: in vivo, male Wistar rats
- measurement_parameters: male, Wistar, serum; rat, intravenous route, 1 mg/kg folic acid in PBS; read-out: FR (relative bioavailability in percentage)
measured_parameter: bioavailability

> print(dat)
                                test.smiles  measured.parameter  result
1  Nc1nc2ncc(CNc3ccc(C(=O)N[C@@H](CCC(=O)O)C(=O)O)cc3)nc2c(=O)[nH]1     bioavailability    100%

* * *

- method_summary: Pharmacokinetic study, bioavailability of folic acid encapsulated in zein nanoparticles
- Type: in vivo, male Wistar rats
- measurement_parameters: male, Wistar; rat serum, intravenous route, 1 mg/kg folic acid in PBS; mean ± SD, n = 5; read-out: AUC (×10^4) (converted)
measured_parameter: AUC

> print(dat)
                                test.smiles  measured.parameter        result
1  Nc1nc2ncc(CNc3ccc(C(=O)N[C@@H](CCC(=O)O)C(=O)O)cc3)nc2c(=O)[nH]1                 AUC  3580 ng·h/mL

* * *

- method_summary: Pharmacokinetic study, bioavailability of folic acid encapsulated in zein nanoparticles
- Assay type: in vivo, male Wistar rats
- measurement_parameters: male, Wistar; rat serum, oral route, 1 mg/kg folic acid; mean ± SD, n = 5
measured_parameter: Tmax (min)

> print(dat)
                                   molecule  measured.number
1  Nc1nc2ncc(CNc3ccc(C(=O)N[C@@H](CCC(=O)O)C(=O)O)cc3)nc2c(=O)[nH]1 [Non-encapsulated FA, folic acid]             58.8

* * *

- method_summary: Pharmacokinetic study, bioavailability of folic acid encapsulated in zein nanoparticles
- Type: in vivo, male Wistar rats
- measurement_parameters: male, Wistar; rat serum, oral route, 1 mg/kg folic acid; mean ± SD, n = 5
measured_parameter: MRT (h)

> print(dat)
                                test.smiles  measured.parameter  measured.number
1  Nc1nc2ncc(CNc3ccc(C(=O)N[C@@H](CCC(=O)O)C(=O)O)cc3)nc2c(=O)[nH]1                 MRT              6.4

* * *

- method_summary: Pharmacokinetic study, bioavailability of folic acid encapsulated in zein nanoparticles
- Assay type: in vivo, male Wistar rats
- measurement_parameters: male, Wistar; rat serum, intravenous route, 1 mg/kg folic acid in PBS; mean ± SD, n = 5
measured_parameter: MRT (min)

> print(dat)
                                test.smiles  unit.name  measured.number
1  Nc1nc2ncc(CNc3ccc(C(=O)N[C@@H](CCC(=O)O)C(=O)O)cc3)nc2c(=O)[nH]1        min             57.8

* * *

- method_summary: Pharmacokinetic study, bioavailability of folic acid encapsulated in zein nanoparticles
- Type: in vivo, male Wistar rats
- measurement_parameters: male, Wistar, serum; rat, oral route, 1 mg/kg folic acid; mean ± SD, n = 5; read-out: FR (relative bioavailability in percentage)
measured_parameter: bioavailability (%)

> print(dat)
                                test.smiles  measured.number
1  Nc1nc2ncc(CNc3ccc(C(=O)N[C@@H](CCC(=O)O)C(=O)O)cc3)nc2c(=O)[nH]1             36.3

* * *

- method_summary: Pharmacokinetic study, bioavailability of folic acid encapsulated in zein nanoparticles
- Assay type: in vivo, male Wistar rats
- measurement_parameters: male, Wistar; rat serum, oral route, 1 mg/kg folic acid; mean ± SD, n = 5
measured_parameter: Cmax (ng/mL)

> print(dat)
                                test.smiles  measured.number
1  Nc1nc2ncc(CNc3ccc(C(=O)N[C@@H](CCC(=O)O)C(=O)O)cc3)nc2c(=O)[nH]1              191
